- Tested on: SF-295
- Method: NCI tumour cell line growth inhibition, 48 h
Active and inactive are the calls of the source. No stated cut-off is given here; in the data, active = GI50 up to about 1.1 µM and inactive = higher.
Please respond with reported GI50 for every item in the list.

# annotated cases, reported GI50 shown
Compound	Assay target	GI50
Nc1ncnc2c1ncn2C1OC(CO)CC1O (centres undefined)	SF-295	58.7 µM (inactive)
O=C1C=C(Nc2ccccc2C(=O)CC(=O)C(=O)Nc2ccc(Cl)c(Cl)c2)c2ccccc2C1=O	SF-295	59 µM (inactive)
NC1CNC(=O)c2c(Cl)sc(Cl)c21 (centres undefined)	SF-295	> 100 µM (inactive)

GI50 recorded for this compound, CCCCCC[C@H]1C(=O)O[C@H](C)[C@H](NC(=O)c2cccc(NC=O)c2OC)C(=O)O[C@@H](C)[C@@H]1OC(=O)C(C)CC.CCCCCC[C@H]1C(=O)O[C@H](C)[C@H](NC(=O)c2cccc(NC=O)c2OC)C(=O)O[C@@H](C)[C@@H]1OC(=O)CC(C)C (some centres undefined) , is 14.5 µM (inactive)
